Tested on: M14 melanoma
assay-protocol: NCI tumour cell line growth inhibition, 48 h
value-type: TGI (µM)
Just the number please, in µM, no unit attached.

Examples from the recorded data:
>  <compound>
COc1cc(/C=C2\C(=O)Nc3ccccc32)cc(OC)c1OC

>  <TGI / µM>
79.5

$$$$
>  <compound>
CC(C)C(C/C=C1\CC(CO)(COC(=O)CC(C(C)C)C(C)C)OC1=O)C(C)C (centres undefined)

>  <TGI / µM>
24.6

$$$$

Next compound, please.
Short answer for OCCO[P+]1(OCCO)n2c3ccc2C(c2ccccc2)=C2C=CC(=N2)C(c2ccccc2)=c2ccc(n21)=C(c1ccccc1)C1=NC(=C3c2ccccc2)C=C1 : TGI was 0.278

The origin of these recorded values is PubChem BioAssay (NCI).
